Measurement notes: Equilibrium solubility, saturation shake-flask method
Assay type: physicochemical
Study conditions: simulated gastric fluid, 37 °C, pH 1.6, simulated gastric fluid, thermodynamic from solid, Simulated gastric fluid pH 1.6; mean ± SD (n=3)
Readout name: solubility
Include the unit right after the number.

Annotate the compound O=C(O)Cc1ccccc1Nc1c(Cl)cccc1Cl [Diclofenac acid] with its measured solubility.
1.72 µg/mL

* * *

Measurement notes: Equilibrium solubility, saturation shake-flask method
Assay type: physicochemical
Study conditions: 0.1N HCl, 37 °C, pH 1.1, simulated gastric fluid, thermodynamic from solid, 0.1N HCl pH 1.1; mean ± SD (n=3)
Procedure: The solubility of diclofenac free acid, sodium and potassium was comparatively evaluated in media reflecting the oral way of administration, as e.g. with different pH values. The equilibrium solubility was determined using the saturation shake-flask method. […] After equilibrium was reached, the excess of solid was removed and the diclofenac concentration in the supernatant solutions was determined by HPLC.
Readout name: solubility (µg/mL)
Answers are plain numbers, in µg/mL.

// fetch solubility given entry O=C(O)Cc1ccccc1Nc1c(Cl)cccc1Cl
2.49
